Can you tell me EC50 for the items I'm about to list?
# tested_system: hMC3-R (HEK-293 cells) (Homo sapiens, UniProt P41968)
# Sequence (P41968 whole entry): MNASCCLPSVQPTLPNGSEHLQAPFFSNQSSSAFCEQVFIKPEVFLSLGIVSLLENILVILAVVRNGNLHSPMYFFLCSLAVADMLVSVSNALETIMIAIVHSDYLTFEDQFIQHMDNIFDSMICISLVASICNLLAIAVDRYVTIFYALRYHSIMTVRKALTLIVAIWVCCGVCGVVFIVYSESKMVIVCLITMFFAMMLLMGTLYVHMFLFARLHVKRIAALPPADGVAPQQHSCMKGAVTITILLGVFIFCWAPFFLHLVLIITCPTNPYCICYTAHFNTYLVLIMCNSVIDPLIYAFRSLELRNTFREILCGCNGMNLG
# method_notes: cAMP functional assay for agonist/antagonist status, MC3-R
# experimental_parameters: cAMP accumulation
Where a SMILES comes first, the peptide text is derived from it. Bridges are numbered along the chain shown (N, C = ends). [ ]: non-standard residue; d: D form. 1Nal = N[C@@H](Cc1cccc2ccccc12)C(=O)O; Nle = CCCC[C@H](N)C(=O)O
Value expressed in nM; do not type the unit.

Value of measured EC50 for the entry CCCC[C@H](NC(C)=O)C(=O)N[C@H]1CC(=O)NCCCC[C@@H](C(=O)NCC)NC(=O)[C@H](Cc2cccc3ccccc23)NC(=O)[C@H](CCCNC(=N)N)NC(=O)[C@@H](Cc2ccccc2)NC(=O)[C@H](Cc2c[nH]cn2)NC1=O : 208

Query CCCC[C@H](NC(C)=O)C(=O)N[C@H]1CC(=O)NCCCC[C@@H](C(=O)NCC)NC(=O)[C@H](Cc2cccc3ccccc23)NC(=O)[C@H](CCCNC(=N)N)NC(=O)[C@@H](Cc2ccccc2)NC(=O)[C@H](Cc2c[nH]c3ccccc23)NC1=O [Example 18] (Ac-[Nle]DW[dF]R[1Nal]K-NHEt; lactam 2-7 (inferred)) yields EC50 of 1820

EC50 measured on CC(=O)N[C@H]1CC(=O)NCCCC[C@@H](C(=O)N(C)C)NC(=O)[C@H](Cc2c[nH]c3ccccc23)NC(=O)[C@H](CCCNC(=N)N)NC(=O)[C@@H](Cc2ccccc2)NC(=O)[C@H](Cc2c[nH]cn2)NC1=O = 1250

Memo: CCCC[C@H](NC(C)=O)C(=O)N[C@H]1CC(=O)NCCCC[C@@H](C(=O)N(C)C)NC(=O)[C@H](Cc2c[nH]c3ccccc23)NC(=O)[C@H](CCCNC(=N)N)NC(=O)[C@@H](Cc2ccccc2)NC(=O)[C@H](Cc2c[nH]cn2)NC1=O , reported EC50: 17

* * *

# tested_system: hMC3-R (HEK-293 cells) (Homo sapiens, UniProt P41968)
# method_notes: cAMP functional assay for agonist/antagonist status, MC3-R
# experimental_parameters: cAMP accumulation
Please provide measured pEC50 for the entries that follow.
A value of pEC50 is the negative decimal logarithm of a concentration given in moles per litre.

Entry CCCC[C@H](NC(C)=O)C(=O)N[C@H]1CC(=O)NCCCC[C@@H](C(=O)NCC)NC(=O)[C@H](Cc2c[nH]c3ccccc23)NC(=O)[C@H](CCCNC(=N)N)NC(=O)[C@@H](Cc2ccccc2)NC(=O)[C@H](Cc2c[nH]cn2)NC1=O [Example 7] — recorded pEC50 = 8.52

For record CCNC(=O)[C@@H]1CCCCNC(=O)C[C@H](NC(C)=O)C(=O)N[C@@H](Cc2c[nH]cn2)C(=O)N[C@H](Cc2ccccc2)C(=O)N[C@@H](CCCNC(=N)N)C(=O)N[C@@H](Cc2c[nH]c3ccccc23)C(=O)N1 [Example 12] the listed pEC50 is 6.55

* * *

Provide the reported EC50 of each item.
# tested_system: hMC3-R (HEK-293 cells) (Homo sapiens, UniProt P41968)
# Construct: expressed in transfected cells; host or cells: HEK-293
# method_notes: cAMP functional assay for agonist/antagonist status, MC3-R
# Type: cell-based
# experimental_parameters: cAMP accumulation
Where a SMILES comes first, the peptide text is derived from it. Bridges are numbered along the chain shown (N, C = ends). [ ]: non-standard residue; d: D form. 1Nal = N[C@@H](Cc1cccc2ccccc12)C(=O)O
Answer in µM, number only, no unit symbol.

Please fill in: EC50 reported for CCCC[C@H](NC(C)=O)C(=O)N[C@H]1CC(=O)NCCCC[C@@H](C(=O)N(C)C)NC(=O)[C@H](Cc2cccc3ccccc23)NC(=O)[C@H](CCCNC(=N)N)NC(=O)[C@@H](Cc2ccccc2)NC(=O)[C@H](Cc2c[nH]cn2)NC1=O [Example 11] = 0.394

Sure, the documented EC50 for CCNC(=O)[C@@H]1CCCCNC(=O)C[C@H](NC(C)=O)C(=O)N[C@@H](Cc2c[nH]cn2)C(=O)N[C@H](Cc2ccccc2)C(=O)N[C@@H](CCCNC(=N)N)C(=O)N[C@@H](Cc2cccc3ccccc23)C(=O)N1 [Example 16] (Ac-DH[dF]R[1Nal]K-NHEt; lactam 1-6 (inferred)) is 6.21
